Listing: GI50 of selected compounds
# Test system: HL-60
# Protocol Text: NCI tumour cell line growth inhibition, 48 h
Active and inactive are the calls of the source. Cut-off read from the data, not from the text of the source: active = GI50 up to about 1.1 µM and inactive = higher.

{"columns": ["Compound", "GI50"],
 "data": [
  ["[O-][S+](c1ccc(Cl)cc1)c1ccccc1C1=NCCN1 (configuration not stated)", "> 100 µM (inactive)"],
  ["COC(=O)[C@H](CC(C)C)NC1=C(Cl)C(=O)c2c(O)ccc(O)c2C1=O", "8.02 µM (inactive)"],
  ["COc1ccc2nc(C)cc(NCCCCCCCCCNc3cc(C)nc4ccc(OC)cc34)c2c1", "0.824 µM (active)"],
  ["CC(=O)O[C@H]1CC2C(C3CCC(C(C)CCC(N)=O)[C@]31C)[C@H](OC(C)=O)C[C@@H]1CC3(CC[C@]21C)OOC1(CC[C@]2(C)C4C[C@H](OC(C)=O)[C@]5(C)C(C(C)CCC(N)=O)CCC5C4[C@H](OC(C)=O)C[C@@H]2C1)OO3 (some centres not stated)", "1.45 µM (inactive)"],
  ["C=C1CCCC2[C@](C)(CC3=C(Cl)C(=O)C=C(OC)C3=O)C(C)CC[C@]12C (some centres not stated)", "1.9 µM (inactive)"],
  ["CC1C(=O)CC(c2cccs2)N(N=O)C1c1cccs1 (configuration not stated)", "26.7 µM (inactive)"],
  ["O=C(/C=C1\\C[C@H]2C=Nc3ccccc3C(=O)N2C1)NCCCCCNC(=O)/C=C1\\C[C@H]2C=Nc3ccccc3C(=O)N2C1", "2.4 µM (inactive)"]
]}

----------
# System: OVCAR-8
# Protocol Text: NCI tumour cell line growth inhibition, 48 h
Active and inactive are the calls of the source. No stated cut-off is given here; in the data, active = GI50 up to about 1.1 µM and inactive = higher.
Labels: active, inactive

{"columns": ["Compound", "Label Class"],
 "data": [
  ["COc1ccccc1NC(=O)c1nc2ccc([N+](=O)[O-])cc2nc1C", "inactive"],
  ["O=C1Nc2ccccc2/C1=N/NC(=S)Nc1ccc(Cl)cc1", "inactive"],
  ["Cn1c2c(c3c(=O)[nH]ncc31)Cc1ccccc1-2", "inactive"],
  ["Nc1nc(Cl)cc(NCC2(CO)CC(O)C2)n1 (centres undefined)", "inactive"],
  ["COc1ccc(-c2nc(SCC(=O)N/N=C/c3ccc(O)c(OC)c3)[nH]c2-c2ccc(OC)cc2)cc1", "inactive"],
  ["C/C(=N\\N=C(/S)N(C)C)c1cccnn1", "active"],
  ["COc1ccc(C(=O)C(c2ccc(OC)cc2)C2C(=O)Oc3ccccc32)cc1 (centres undefined)", "inactive"],
  ["COc1ccc2nc(C)cc(NCCCCCCCCCNc3cc(C)nc4ccc(OC)cc34)c2c1", "active"],
  ["CSc1cc(Cl)c(C)cc1S(=O)(=O)NC(=O)NNc1cnc2ccccc2n1", "inactive"]
]}

----------
# Tested on: SK-MEL-28
# Protocol Text: NCI tumour cell line growth inhibition, 48 h
The source made the active and inactive calls. No stated cut-off is given here; in the data, active = GI50 up to about 1.1 µM and inactive = higher.
Labels: 1 (yes) (active), 0 (no) (inactive)

{"columns": ["Molecule", "Label Class"],
 "data": [
  ["C/C1=C\\CC[C@@]2(C)O[C@@H]2C[C@@H](C2(C)CO2)CC/C(C)=C/CC1 (stereo partly drawn)", "0 (no)"],
  ["COc1ccc(-c2cc(C(=O)Nc3cccc(C(F)(F)F)c3)nc(S)n2)cc1", "0 (no)"],
  ["Cc1csc(-n2c(C)nc3cc(Cl)ccc3c2=O)n1", "0 (no)"],
  ["O=c1[nH]c(Nc2ccc(Br)c(C(F)(F)F)c2)nc2[nH]cnc12", "0 (no)"],
  ["CC1=C[C@@H]2Cc3occc3C(C)(C)[C@@H]2CC1", "0 (no)"],
  ["Nc1ccc(/C=C/c2ccc3cccnc3c2)cc1", "0 (no)"],
  ["CC(C)=CCNc1ncnc2c1ncn2CCC#N", "0 (no)"],
  ["N/C(=N\\Nc1nc2cc([N+](=O)[O-])ccc2o1)c1ccccn1", "1 (yes)"]
]}

----------
Listed here are compounds together with their documented GI50.
# System: UACC-257
# Protocol Text: NCI tumour cell line growth inhibition, 48 h
Active and inactive are the calls of the source. Cut-off read from the data, not from the text of the source: active = GI50 up to about 1.1 µM and inactive = higher. Where a SMILES comes first, the peptide text is derived from it. [ ]: non-standard residue; d: D form. The star is where a group is joined. mTyr = N[CH](Cc1cccc(O)c1)C(=O)O; Cbz = O=C(OCc1ccccc1)*; OBn = c1ccc(CO*)cc1
Measured Metric: GI50

{"columns": ["Compound", "Experimental Value"],
 "data": [
  ["COCN1C(=O)[C@@H]2CCCN2C(=O)c2cc(OC)c(Cc3ccccc3)cc21", "> 100 µM (inactive)"],
  ["COc1cc(O)c(C(=O)/C=C/c2ccc(O)cc2)cc1Oc1ccc(C(=O)/C=C/c2ccc(O)cc2)c(O)c1 [RHUSCHALCONE IV]", "6.19 µM (inactive)"],
  ["CCOc1cnc(C(O)(c2ccccc2)c2ccccc2)o1", "> 100 µM (inactive)"],
  ["O=C(CC(=O)n1nc(-c2ccccc2)c(/N=N/c2ccc(Cl)cc2)c1-c1ccccc1)Nc1ccc(Cl)cc1", "> 49.2 µM (inactive)"],
  ["O=C1N[C@@H]2c3c(csc3Br)C(=O)[C@@H]2O1", "22.4 µM (inactive)"],
  ["O=C(O)C(Cl)(c1ccccc1)c1ccccc1", "> 100 µM (inactive)"],
  ["N#CC(C#N)=Cc1ccc(C(O)P(=O)(O)O)cc1 (stereo not drawn)", "> 100 µM (inactive)"],
  ["COC(=O)C(Cc1cccc(O)c1)NC(=O)C(CC(=O)OCc1ccccc1)NC(=O)OCc1ccccc1 (stereo not drawn) (Cbz-Asp(OBn)-[mTyr]-OMe; configuration not given here)", "> 100 µM (inactive)"]
]}

----------
Documented GI50 across a set of molecules
# System: CCRF-CEM
# Protocol Text: NCI tumour cell line growth inhibition, 48 h
Activity calls are given as the source filed them. Rule as the data show it: active = GI50 up to about 1.1 µM and inactive = higher.

{"columns": ["Molecule", "Tgt", "GI50"],
 "data": [
  ["CC(=O)C(=Cc1cn(C)c(=O)n(C)c1=O)C(C)=O", "CCRF-CEM", "49.4 µM (inactive)"],
  ["N=C(N)NS(=O)(=O)c1ccc(Nc2c3ccccc3nc3c(C(=O)N4CCN(CCO)CC4)cccc23)cc1", "CCRF-CEM", "> 100 µM (inactive)"],
  ["CCNC(=S)N/N=C1\\C(=O)Nc2ccc([N+](=O)[O-])cc21", "CCRF-CEM", "7.06 µM (inactive)"],
  ["COC(=O)c1c2c(cc3c1CC1(Cc4cc5c(c(C)c4C1)CCC5)C3)CCC2 (stereo not given)", "CCRF-CEM", "> 100 µM (inactive)"],
  ["COc1cc2c(cc1OS(C)(=O)=O)N=C[C@@H]1CCCN1C2=O", "CCRF-CEM", "72.3 µM (inactive)"]
]}

----------
Catalogue of GI50 readings, one per entry.
# Tested on: LXFL 529
# Protocol Text: NCI tumour cell line growth inhibition, 48 h
Calls of active or inactive are those of the source. No stated cut-off is given here; in the data, active = GI50 up to about 1.1 µM and inactive = higher.

{"columns": ["Molecule", "GI50"],
 "data": [
  ["Cc1cc(Cl)cc2c1NC(=O)C2(O)C(C)C(=O)c1ccc(Cl)cc1 (centres undefined)", "> 66.5 µM (inactive)"],
  ["CCOC(=O)NC(=O)c1cn(CCSCCOC(=O)NCCCCCCNC(=O)OCCSCCn2cc(C(=O)NC(=O)OCC)c(=O)n(C)c2=O)c(=O)n(C)c1=O", "5.36 µM (inactive)"],
  ["O=C(Cc1ccccc1)C(c1ccccc1)S(=O)(=O)c1ccccc1 (centres undefined)", "87.1 µM (inactive)"],
  ["N=C(N)NS(=O)(=O)c1ccc(Nc2c3ccccc3nc3c(C(=O)N4CCN(CCO)CC4)cccc23)cc1", "> 100 µM (inactive)"],
  ["Cc1cccc(C(C)C)c1NC(=O)CC1C(=O)Nc2ccccc2S1(=O)=O (centres undefined)", "16.7 µM (inactive)"],
  ["O=C(Cc1ccc([N+](=O)[O-])c([N+](=O)[O-])c1CC(=O)C(=O)Nc1cc(Cl)ccc1Cl)C(=O)Nc1cc(Cl)ccc1Cl", "> 100 µM (inactive)"],
  ["CCCCCCCC/C=C\\CCCCCCCC(=O)NCCN(CCN)C(=O)CCCCCCC/C=C\\CCCCCCCC", "> 100 µM (inactive)"],
  ["COc1ccc2c(c1)[n+]([O-])c(C(=O)C/C(=N\\NC(=O)C[N+](C)(C)C)C(=O)Nc1cc(Cl)ccc1Cl)c(C)[n+]2[O-]", "> 100 µM (inactive)"],
  ["COc1ccccc1NC(=O)c1nc2ccc([N+](=O)[O-])cc2nc1C", "> 100 µM (inactive)"],
  ["CCOC(=O)C1=C(C)N(NC(N)=O)C(C)(O)C12CCOC2=O (centres undefined)", "> 100 µM (inactive)"],
  ["Fc1cccc(C2SCc3nc4ccccc4n32)c1F (centres undefined)", "40.9 µM (inactive)"],
  ["CCCC/C=C1\\CCC(CN2CCOCC2)C1=O (centres undefined)", "1.43 µM (inactive)"],
  ["COc1ccc2nc(C)cc(NCCCCCCCCCNc3cc(C)nc4ccc(OC)cc34)c2c1", "1.17 µM (inactive)"],
  ["Cc1cccc(C(C)(C)C)c1NC(=O)CCc1nnc(S)[nH]1", "> 100 µM (inactive)"]
]}
